Assay: Mouse pharmacokinetics (iv)
Format: in vivo
Conditions: in vivo
testReadout: clearance (mL/min/kg)

                                   compound  reported
0  Cc1ccc(-c2csc(Cn3nc(CC=O)c4ccccc4c3=O)n2)cc1 [Compound 79]        30
1  Cc1ccc(-c2csc(Cn3nc(CC(=O)N4CCN(C)CC4)c4ccccc4c3=O)n2)cc1 [Compound 123]        31
2  Cc1ccc(-c2csc(Cn3nc(CC4OCCCO4)c4ccccc4c3=O)n2)cc1 [Compound 9]       133
3  Cc1ccc(-c2csc(Cn3nc(CC(=O)O)c4ccccc4c3=O)n2)cc1 [Compound 8]      4740
4  Cc1ccc(-c2csc(Cn3nc(Cc4nccs4)c4ccccc4c3=O)n2)cc1 [Compound 10]       119
5  CCNC(=O)Cc1nn(Cc2nc(-c3ccc(C)cc3)cs2)c(=O)c2ccccc12 [Compound 78]        34

----------
Each entry below lists one item and its recorded pIC50 value.
Tested on: H1975 (KRAS wildtype cell line)
Assay: Proliferation Assay H1975
Assay type: cell-based
Conditions: Homo sapiens, NCI-H1975, n = 1
pIC50: −log10 of the molar value.
testReadout: pIC50

>>> df
                                    compound  reported
 0  O=C1COC(=O)N1/C=C/c1cc(NS(=O)(=O)c2cccs2)c2c(c1O)OCO2    < 4.00
 1  Cc1ccc(-c2csc(Cn3nc(CC(=O)NS(C)(=O)=O)c4ccccc4c3=O)n2)cc1    < 4.00
 2  COc1c(/C=C/C(=O)O)cc(NS(=O)(=O)c2cccs2)c2c1OCO2    < 4.00
 3  COc1cc(NS(=O)(=O)c2cccs2)c(SC)c(/C=C/N2C(=O)COC2=O)c1O    < 4.00
 4  O=C(O)/C=C/c1cc(NS(=O)(=O)c2cccs2)c2c(c1O)OCO2    < 4.00
 5  Cc1ccc(-c2csc(Cn3nc(CC(=O)NCCC(N)=O)c4ccccc4c3=O)n2)cc1      4.10
 6         CCOC(=O)/C=C/c1c(O)c(OC)cc(N)c1SC      4.02
 7  Cc1ccc(-c2csc(Cn3nc(CC(O)C[N+](=O)[O-])c4ccccc4c3=O)n2)cc1 (centres unmarked)      4.40
 8           COc1cc(N)c(SC)c(/C=C/C(=O)O)c1O      4.00
 9  CSc1c(NS(=O)(=O)c2cccs2)cc(O)c(O)c1/C=C/C(=O)O    < 4.00
10            CSc1c(N)cc(O)c(O)c1/C=C/C(=O)O    < 4.00
11  CCOC(=O)CCc1cc(NS(=O)(=O)c2cccs2)c2c(c1OC)OCO2    < 4.00
12  COc1cc(NS(=O)(=O)c2cccs2)c(SC)c(/C=C/C(=O)O)c1O    < 4.00
13  CN1CC(=O)N(/C=C/c2cc(NS(=O)(=O)c3cccs3)c3c(c2O)OCO3)C1=O    < 4.00
14          CCOC(=O)/C=C/c1c(O)c(O)cc(N)c1SC    < 4.00
15  Cc1ccc(-c2csc(Cn3nc(C4OC5CCOC54)c4ccccc4c3=O)n2)cc1 (centres unmarked)    < 4.00
16  CCOC(=O)/C=C/c1c(O)c(OC)cc(NS(=O)(=O)c2cccs2)c1SC    < 4.00
